Data origin, for the record: ChEMBL document CHEMBL3988442

Would you kindly list Percent Effect for each of these compounds?
# Test system: Wolbachia pipientis
# ASSAY: Anti-Wolbachia Cell-Based Screen
# Format: functional
# Set-up: scale not given: in the data most compounds retested in dose-response had high values
# CONDITION_CONTEXT: 5 µM
About 13,000 (27%) of roughly 48,000 compounds showed an effect of 50% or more. Some of the results follow.
Just the number in %, nothing appended.

Query: Return reported Percent Effect for target or system Wolbachia pipientis, item O=C1CC(c2ccc(F)cc2)c2cnn(C3CCCC3)c2N1 (stereo not given) .
Reply: -2.721

Query: Recall the reported Percent Effect of O=C(NCC1CCCCO1)c1ccc(-c2ccco2)[nH]c1=O (stereo not given) on Wolbachia pipientis and write it down.
Reply: 3.575

Query: Report Percent Effect under test system Wolbachia pipientis for `COc1ccc(NC(=O)CSc2nc(C)cc(C)n2)cn1` .
Reply: 9.531

Query: Under Wolbachia pipientis, report Percent Effect for O=C(CN1CC(c2nc(-c3cccs3)no2)C1)NCC1CCCO1.O=C(O)C(=O)O (stereo not given)
Reply: 11.99

Query: State, for Wolbachia pipientis, measured Percent Effect of the compound listed here: `O=C(CSC1=NS(=O)(=O)c2cc(F)ccc2N1)Nc1ccc(Cl)cc1`
Reply: 115.7

Query: Write down the reported Percent Effect (system: Wolbachia pipientis) of `Cc1n[nH]cc1CNCC1(c2cccc(F)c2)CCOCC1.Cl`
Reply: 8.493

Query: For Wolbachia pipientis, give the measured Percent Effect of the entry CCC(Nc1nccc(C2CCCC2)n1)c1ccncc1 (stereo not given)
Reply: -45.04

Query: State the measured Percent Effect (Wolbachia pipientis) of CSc1ccc(C2CC(=O)Nc3c2c(=O)[nH]c2ncnn32)cc1 (stereo not given)
Reply: -5.097

Query: Enter measured Percent Effect, system Wolbachia pipientis, for the compound shown: `C[C@@H]1CN(Cc2ccc(C(F)(F)F)cc2F)CC[C@]1(C)O`
Reply: -2.035

Query: Report value: Percent Effect, system: Wolbachia pipientis, compound: `CC(C)(C)C(=O)NCCn1ccc(-c2ccncc2)n1`
Reply: -1.821

Query: State, for Wolbachia pipientis, measured Percent Effect of the compound listed here: Cc1nc(CN2CCC3(CCN(c4cnn(C)c4)C3=O)C2)cs1.O=C(O)C(F)(F)F (stereo not given)
Reply: 109

Query: Param request: Percent Effect | system Wolbachia pipientis | item `CN(CCS(=O)(=O)c1cc(Cl)ccc1Cl)CC(=O)Nc1ccc(F)cc1`
Reply: -4.797

Query: Please respond with reported Percent Effect (system Wolbachia pipientis) for `O=S1(=O)N=C(SCc2ccc(Cl)cc2)Nc2ccc(F)cc21` .
Reply: 26.5

Query: // fetch Percent Effect for Cc1nc(-c2cc(Cl)c3c(c2)CC(CN)O3)c[nH]1 (stereo not given) ; system: Wolbachia pipientis
Reply: 12.8

Query: Specify Percent Effect for `CCCNC(=O)c1ccc(-c2ccco2)[nH]c1=O` , system Wolbachia pipientis.
Reply: 7.034

Query: Give Wolbachia pipientis Percent Effect for the following compound: `CC1=CC(C)(C)N(CN2C(=O)c3ccccc3C2=O)c2ccc(C)cc21`
Reply: -18.46

Query: Give measured Percent Effect for Cc1nc(CN2CCCC3(CCN(c4cnn(C)c4)C3=O)C2)cs1.O=C(O)C(F)(F)F (stereo not given) (Wolbachia pipientis).
Reply: 93.19

Query: Identify measured Percent Effect obtained with Wolbachia pipientis for O=C1CC(c2ccc(C(=O)O)cc2)c2ncn(-c3cccc(F)c3)c2N1 (stereo not given) .
Reply: 4.592

Query: Specify the recorded Percent Effect for CC(C)n1[nH]c(=O)c2c1NC(=O)CC2c1cccnc1 (stereo not given) , system: Wolbachia pipientis.
Reply: 10.81

Query: Find the measured Percent Effect of CC(C)n1[nH]c(=O)c2c1NC(=O)CC2c1ccc2ncccc2c1 (stereo not given) with Wolbachia pipientis as test system.
Reply: 8.497

Query: Answer with Percent Effect of `O=C(NC[C@H]1CCCC[C@H]1O)c1cccc2[nH]c(-c3cccs3)nc12` measured for Wolbachia pipientis.
Reply: 118.3

Query: Look up and report Percent Effect, with Wolbachia pipientis as system, for COc1cccc(CN2CCC3(COCc4cnc(N(C)C)nc43)C2)c1.O=C(O)C(F)(F)F (stereo not given)
Reply: -4.622

Query: # assay system Wolbachia pipientis: give Percent Effect of `Cc1sc(-c2ccco2)nc1C(=O)N(CC(N)=O)C1CCCC1`
Reply: -7.156

Query: Fill: Percent Effect (Wolbachia pipientis) for this compound Cn1c(=O)c2c(n3ncnc13)NC(=O)CC2c1cccc(F)c1 (stereo not given)
Reply: 120.7

Query: Under Wolbachia pipientis, report Percent Effect for COc1cccc(OC)c1CN1CCC2(CC(Nc3ccncn3)C2)C1 (stereo not given)
Reply: 4.398

Query: Answer with Percent Effect of CC(C)c1ccc(CNC(C)c2ccc(S(C)(=O)=O)cc2)cc1 (stereo not given) measured for Wolbachia pipientis.
Reply: 0.134

Query: // fetch Percent Effect for CCC(NC(=O)CCNC(=O)c1ccccc1F)c1cc(C)ccn1 (stereo not given) ; system: Wolbachia pipientis
Reply: -12.53

Query: For Wolbachia pipientis, give Percent Effect of the listed compound: `CS(=O)(=O)c1ccc(CNC(=O)N2CCC(c3ccccc3)CC2)cc1`
Reply: -1.969

Query: GET Percent Effect where system = Wolbachia pipientis and item = CCC(NC1CCCC1)c1ccc(S(C)(=O)=O)cc1 (stereo not given)
Reply: 102.8

Query: State the measured Percent Effect (Wolbachia pipientis) of O=c1ccc2c(n1CC1CC1)CCC(NS(=O)(=O)C1CC1)C2 (stereo not given)
Reply: -36.22

Query: Quote Wolbachia pipientis Percent Effect for entry Cn1c(=O)c2c(n3ncnc13)NC(=O)CC2c1ccc(F)cc1 (stereo not given) .
Reply: 107.2

Query: Using Wolbachia pipientis as the test system, report measured Percent Effect of O=C1CC(c2ccc(C(=O)O)cc2)c2ncn(-c3ccccc3F)c2N1 (stereo not given) .
Reply: 10.34

Query: Name the value of Percent Effect reported for Cc1sc(-c2ccco2)nc1C(=O)NCC1CCOC1 (stereo not given) when tested on Wolbachia pipientis.
Reply: 3.177

Query: Report Percent Effect on Wolbachia pipientis for this entry: COc1cccc(C2CC(=O)Nc3c2c(=O)n(C)c2ncnn32)c1 (stereo not given)
Reply: 109.5

Query: Output reported Percent Effect of the compound CN(C)C(=O)CN1CCC2(COCc3cnc(-c4cccnc4)nc32)C1.O=C(O)C(F)(F)F.O=C(O)C(F)(F)F (stereo not given) on Wolbachia pipientis.
Reply: 108.5

Query: State Percent Effect on Wolbachia pipientis. Entry: CN(C)C(=O)CN1CCC2(COCc3cnc(-c4ccccc4)nc32)C1 (stereo not given)
Reply: 100.5

Query: Please indicate recorded Percent Effect of `CCN(Cc1cccs1)C(=O)c1ccc(=O)n(C)c1` measured with Wolbachia pipientis.
Reply: 17.88

Query: // output Percent Effect; input CC(C)n1[nH]c(=O)c2c1NC(=O)CC2c1cccc(OC(F)F)c1 (stereo not given) ; system Wolbachia pipientis
Reply: 18.26

Query: Report Percent Effect on Wolbachia pipientis for this entry: `COC(=O)[C@H]1CN(C(=O)NC(C)C)CCN1C(=O)CSC`
Reply: 4.68

Query: Quote Percent Effect with test system Wolbachia pipientis for `CCN(Cc1nc(COC)no1)Cc1cccnc1NC(=O)C(C)(C)C`
Reply: -4.491

Query: Please indicate recorded Percent Effect of CCC(NC1Cc2ccccc2C1)c1ccc(S(C)(=O)=O)cc1 (stereo not given) measured with Wolbachia pipientis.
Reply: 106.7

Query: Output reported Percent Effect of the compound COc1ccc(Cl)cc1CNC(=O)CN1CCC2(CCOC2)C1 (stereo not given) on Wolbachia pipientis.
Reply: 5.478

Query: // output Percent Effect; input COCCN1CCCC2(CCN(c3ccsc3)C2=O)C1.O=C(O)C(F)(F)F (stereo not given) ; system Wolbachia pipientis
Reply: -26.52

Query: Using Wolbachia pipientis as the test system, report measured Percent Effect of Cc1nc(CN2CCC(C(=O)N(C)C3CCC(C)CC3)CC2)cs1 (stereo not given) .
Reply: -8.684

Query: Under Wolbachia pipientis: report Percent Effect of `CC(C)(C)C(=O)NCCn1ccc(-c2ccccn2)n1` .
Reply: 67.15
